Exercise: state measured melting point for each of the molecules provided.
Respond with the bare value in °C.

Problem: Given the entry C[C@@H]1CN(c2ccc3ccccc3n2)C[C@H](C)N1CCCCC1(C(=O)NCC(F)(F)F)c2ccccc2Oc2ccccc21 , report its measured melting point.
Result: 177

Problem: Another molecule to check: Cn1c(N2CCN(CCCCC3(C(=O)NCc4ccc(F)cc4)c4ccccc4-c4ccccc43)CC2)nc2ccccc21
Result: 55

Problem: Another molecule to check: O=C(NCC(F)(F)F)C1(CCCCN2CCN(c3ccc4cccc(Cl)c4n3)CC2)c2ccccc2-c2ccccc21
Result: 121

Problem: Another molecule to check: O=C(NCc1ccc(F)cc1)C1(CCCCN2CCN(c3ccc4c(Cl)cccc4n3)CC2)c2ccccc2-c2ccccc21
Result: 140

Problem: Another molecule to check: C[C@@H]1CN(c2ccc3ccccc3n2)C[C@H](C)N1CCCCC1(C(=O)NCc2ccc(F)cc2)c2ccccc2-c2ccccc21
Result: 62

---

Exercise: state measured melting point for each of the compounds provided.
Respond with the bare value in °C.

Problem: Given the entry Cn1c(N2CCN(CCCCC3(C(=O)NCc4ccc(F)cc4)c4ccccc4-c4ccccc43)CC2)nc2ccc(F)cc21 , report its measured melting point.
Result: 43

Problem: Another compound to check: Cn1c(N2CCN(CCCCC3(C(=O)NCC(F)(F)C(F)(F)F)c4ccccc4-c4ccccc43)CC2)nc2ccccc21
Result: 120

Problem: Another compound to check: C[C@@H]1CN(c2ccc3ccccc3n2)C[C@H](C)N1CCCCC1(C(=O)NCc2ccc(F)c(F)c2)c2ccccc2-c2ccccc21
Result: 162

---

Exercise: state measured melting point for each of the molecules provided.

Problem: Given the entry O=C(NCC(F)(F)F)C1(CCCCN2CCN(c3ccc4cc(Cl)ccc4n3)CC2)c2ccccc2Oc2ccccc21 [Example 105] , report its measured melting point.
Result: 165 °C

Problem: Another molecule to check: C[C@H]1CN(c2ccc3ccccc3n2)CCN1CCCCC1(C(=O)NCC(F)(F)F)c2ccccc2Oc2ccccc21 [Example 109]
Result: 52 to 53 °C

Problem: Another molecule to check: O=C(NCC(F)(F)F)C1(CCCCN2CCN(c3nc4ccccc4n3Cc3ccccc3)CC2)c2ccccc2-c2ccccc21 [Example 13]
Result: 60 °C

Problem: Another molecule to check: C[C@@H]1CN(c2ncc3ccccc3n2)C[C@H](C)N1CCCCC1(C(=O)NCC(F)(F)F)c2ccccc2-c2ccccc21 [Example 47]
Result: 174 °C

---

Exercise: state measured melting point for each of the compounds provided.
Respond with the bare value in °C.

Problem: Given the entry O=C(NCC(F)(F)F)C1(CCCCN2CCN(c3nc4ccccc4o3)CC2)c2ccccc2-c2ccccc21 [Example 2] , report its measured melting point.
Result: 128

Problem: Another compound to check: O=C(NCc1ccc(F)cc1)C1(CCCCN2CCN(c3ccc4cccc(Cl)c4n3)CC2)c2ccccc2-c2ccccc21 [Example 55]
Result: 66

Problem: Another compound to check: CCn1c(N2CCN(CCCCC3(C(=O)NCc4ccc(F)cc4)c4ccccc4-c4ccccc43)CC2)nc2ccccc21 [Example 61]
Result: 166

Problem: Another compound to check: Cn1c(N2CCN(CCCCC3(C(=O)NCC(F)(F)F)c4ccccc4-c4ccccc43)CC2)nc2cc(Cl)ccc21 [Example 19]
Result: 155

Problem: Another compound to check: C[C@@H]1CN(c2nc3ccccc3s2)C[C@H](C)N1CCCCC1(C(=O)NCc2ccc(F)cc2)c2ccccc2-c2ccccc21 [Example 70]
Result: 171

Problem: Another compound to check: O=C(NCC(F)(F)F)C1(CCCCN2CCN(c3ccc4ccccc4n3)CC2)c2ccccc2Oc2ccccc21 [Example 103]
Result: 178

Problem: Another compound to check: O=C(NCC(F)(F)F)C1(CCCCN2CCN(c3cnc4c(Cl)cccc4n3)CC2)c2ccccc2-c2ccccc21 [Example 23]
Result: 74

Problem: Another compound to check: O=C(NCc1ccc(F)cc1)C1(CCCCN2CCN(c3ccc4ccccc4n3)CC2)c2ccccc2-c2ccccc21 [Example 53]
Result: 58

Problem: Another compound to check: COc1cccc2c1nc(N1CCN(CCCCC3(C(=O)NCC(F)(F)F)c4ccccc4-c4ccccc43)CC1)n2C [Example 20]
Result: 146

Problem: Another compound to check: C[C@@H]1CN(c2nc3ccccc3n2C)C[C@H](C)N1CCCCC1(C(=O)NCC(F)(F)F)c2ccccc2-c2ccccc21 [Example 43]
Result: 77
